assayInfo: Pharmacokinetics after gavage administration to rats (plasma level of free TP by LC-MS)
Design: species or system SD rats
measurementContext: Sprague-Dawley, rat, in vivo, po, 0.4 mg/kg
resultType: AUC(0-inf) (ng·h/mL)
Write down the numeric answer in ng·h/mL and omit the unit.

## Task Specify AUC(0-inf) for CC(C)[C@]12O[C@H]1[C@@H]1O[C@]13[C@]1(O[C@H]1C[C@H]1C4=C(CC[C@@]13C)C(=O)OC4)[C@@H]2O [TP, Triptolide] and stop.
## Result 0.061

---

assayInfo: Pharmacokinetics after gavage administration to rats (plasma level of free TP by LC-MS)
Design: species or system SD rats
measurementContext: Sprague-Dawley, rat, in vivo, po, 0.4 mg/kg
resultType: Cmax
Include the unit after the number when you answer.

## Task Specify Cmax for CC(C)[C@]12O[C@H]1[C@@H]1O[C@]13[C@]1(O[C@H]1C[C@H]1C4=C(CC[C@@]13C)C(=O)OC4)[C@@H]2O [TP, Triptolide] and stop.
## Result 0.021 ng/mL

---

assayInfo: Pharmacokinetics after gavage administration to rats (plasma level of free TP by LC-MS)
Design: species or system SD rats
measurementContext: Sprague-Dawley, rat, in vivo, po, 0.4 mg/kg
resultType: Tmax (min)
Write down the numeric answer in min and omit the unit.

## Task Specify Tmax for CC(C)[C@]12O[C@H]1[C@@H]1O[C@]13[C@]1(O[C@H]1C[C@H]1C4=C(CC[C@@]13C)C(=O)OC4)[C@@H]2O [TP, Triptolide] and stop.
## Result 15

---

assayInfo: Pharmacokinetics after gavage administration to rats (plasma level of free TP by LC-MS)
Set-up: species or system SD rats
measurementContext: Sprague-Dawley, rat, in vivo, po, 0.4 mg/kg
resultType: half-life

## Task Specify half-life for CC(C)[C@]12O[C@H]1[C@@H]1O[C@]13[C@]1(O[C@H]1C[C@H]1C4=C(CC[C@@]13C)C(=O)OC4)[C@@H]2O [TP, Triptolide] and stop.
## Result 42.6 min
